# Test system: RXF-631 renal
# test details: NCI tumour cell line growth inhibition, 48 h
Listing of recorded TGI by entry.
assay endpoint: TGI

Cc1ccc(CCNC(=S)SCC(NC(=O)CCC(N)C(=O)O)C(=O)NCC(=O)O)cc1 (stereo not given)
5.62 µM
O=C(NC(c1ccccc1)C(O)C(=O)OCc1ccc2c(c1)C(=O)c1ccccc1C2=O)c1ccccc1 (stereo not given)
> 100 µM
CC(=O)NC(Cc1ccccc1)C(=S)N1CCCC1 (stereo not given)
> 100 µM
CCc1cccc(C(C)C)c1C1C(=O)C(=O)N(c2nc3ccccc3s2)C(=O)C1=O
> 100 µM
Nc1n[nH]c(=O)c2c1c(Br)cn2C1OC(CO)C(O)C1O (stereo not given)
6.59 µM

====

Measured TGI accompanies every entry in the list below.
# Tested on: SN12C renal
# test details: NCI tumour cell line growth inhibition, 48 h
assay endpoint: TGI (µM)

COCN1C(=O)[C@@H]2C[C@@H](OC/C=C/CBr)CN2C(=O)c2ccccc21
33.3
COc1cc2c(cc1Nc1nc(Nc3ccsc3C(N)=O)c3cc[nH]c3n1)N(C(=O)CN(C)C)CCC2
11.8
CCS(=O)(=O)Nc1ccc(Oc2ccc(F)cc2F)c(-c2cn(C)c(=O)c3[nH]ccc23)c1
31.2
CCOC(=O)C1C(=O)C=C(c2cc(C)ccc2O)CC1c1cccc(Br)c1 (centres undefined)
33.1

====

# System: HOP-62 NSCLC
# test details: NCI tumour cell line growth inhibition, 48 h
assay endpoint: GI50

Cc1nc2cc(NC(=O)CN3CCN(CCN4C(=O)c5cccc6cccc(c56)C4=O)CC3)ccc2s1
3830 nM
Cn1c([N+](=O)[O-])cnc1/C=C1\Oc2ccc(Cl)cc2C1=O
1600 nM
CCN(CC)CCC(CNc1c2ccc(Cl)cc2nc2ccc(OC)cc12)c1ccccc1 (stereo not drawn)
1160 nM

====

Recorded TGI for the following compounds
# System: SF-268 CNS
# test details: NCI tumour cell line growth inhibition, 48 h
assay endpoint: TGI

COc1cc(OC)cc(N(C)Cc2cnc3nc(N)nc(N)c3c2C)c1
> 100 µM
CN(C)CCCN1c2ccc3ccccc3c2Sc2cccc(Cl)c21
32.5 µM
COCN1C(=O)[C@@H]2C[C@@H](OC/C=C/CBr)CN2C(=O)c2ccccc21
83.4 µM
COc1ccc(C2Oc3cc(OC)c(O)cc3[C@@H]2C)cc1 (stereo partly specified)
> 100 µM
C=CC(=O)N1CC[C@@H](Oc2nc(Nc3ccc(N4CCC(N5CCN(C)CC5)CC4)cc3)c(C(N)=O)nc2CC)C1
> 100 µM
S=C(N/N=C/c1ccccc1)NC1CC(c2ccccc2)Oc2ccccc21 (stereo unspecified)
> 100 µM
CC(=O)OC12CCCCC1C1(CCCC1)NC2=O (stereo unspecified)
> 100 µM
COc1ccc2[nH]c3c(C)c4ccnc(NCCCN(C)CCCNC(=O)NCCCN(C)CCCNc5nccc6c(C)c7[nH]c8ccc(OC)cc8c7c(C)c56)c4c(C)c3c2c1
3.25 µM
COc1cc(C2c3cc4c(c(O)c3C(=O)C3CCC(=O)N32)OCO4)cc(OC)c1OC (stereo unspecified)
> 100 µM
C/C=C\C(C)=C/C(C)C(=O)CC(O)CC1CC(=O)NC(=O)C1 (stereo unspecified)
> 100 µM
CCCCCCCCCCCCOC1C(C(COC2OC(C(O)CO)C3OC(C)(C)OC23)OC(=O)Nc2ccc([N+](=O)[O-])cc2)OC2OC(C)(C)OC21 (stereo unspecified)
22.1 µM
CC(=O)NC(Cc1ccccc1)C(=S)N1CCCC1 (stereo unspecified)
> 100 µM
C=CCn1c(=O)c(-c2ccccc2)c(O)c2ccccc21
> 100 µM
CNCc1ccc(C)c(NC(=O)c2ccc(Nc3nc(-c4ccccc4)c4ccccc4n3)cc2)c1
4.26 µM
CCO/C=N/C1=C(C#N)C(c2ccc(OC)c(OC)c2)c2c(-c3ccccc3)nn(-c3ccccc3)c2O1 (stereo unspecified)
61.7 µM
Cc1cccc2ns[s+]c12
> 100 µM
COC(=O)c1cc(CNCCc2c[nH]c3ccccc23)on1
> 100 µM
COCC(O)CN1C(N)=NC(O)C1O (stereo unspecified)
> 100 µM
CCCCCC1C2C(=O)NC(=O)C1C(=O)NC2=O (stereo unspecified)
> 100 µM
CCC1OC(=O)C(C)C(OC2CC(C)(O)C(O)C(C)O2)C(C)C(O)C(C)(O)CC(C)C(=O)C(C)C(O)C1C (stereo unspecified)
> 300 µM
COc1cc(NS(C)(=O)=O)ccc1N1Cc2cnc3ccc4[nH]ccc1c4c23
75.2 µM
